tested on: SW1463 (Colorectal Carcinoma); test: combination Emax (second highest fraction inhibited in the dose matrix, 72 h); higher = more inhibition; extreme values may be limits of the assay
Label rule, in plain words: combination Emax of 0.5 and up is label 1, under 0.5 is label 0.

Input line: Does the reported combination Emax for CN(C)CCCOc1ccc(-c2ccc3ncc4c(c3c2)n(C2CCOCC2)c(=O)n4C)cn1 [AZD0156] + C=CCn1c(=O)c2cnc(Nc3ccc(N4CCN(C)CC4)cc3)nc2n1-c1cccc(C(C)(C)O)n1 [AZD1775] (first compound max 1 µM, partner max 1 µM) fall at or above the 0.5 mark?
Output line: label 0

Input line: Does the reported combination Emax for NC1(C(=O)N[C@@H](CCO)c2ccc(Cl)cc2)CCN(c2ncnc3[nH]ccc23)CC1 [Capivasertib] + CCN(CCO)CCCOc1ccc2c(Nc3cc(CC(=O)Nc4cccc(F)c4)[nH]n3)ncnc2c1 [AZD2811] (first compound max 10 µM, 7x7, partner max 1 µM) fall at or above the 0.5 mark?
Output line: label 0

Input line: Does the reported combination Emax for CC(=O)Nc1cccc(-n2c(=O)n(C3CC3)c(=O)c3c(Nc4ccc(I)cc4F)n(C)c(=O)c(C)c32)c1 [Trametinib] + Cc1nc(-c2cn3c(n2)-c2ccc(-c4cnn(C(C)(C)C(N)=O)c4)cc2OCC3)n(C(C)C)n1 [Taselisib] (first compound max 1 µM, 7x7, partner max 10 µM) fall at or above the 0.5 mark?
Output line: label 1

Input line: Does the reported combination Emax for CC1(C)CCC(CN2CCN(c3ccc(C(=O)NS(=O)(=O)c4ccc(NCC5CCOCC5)c([N+](=O)[O-])c4)c(Oc4cnc5[nH]ccc5c4)c3)CC2)=C(c2ccc(Cl)cc2)C1 [Venetoclax] + Cc1cc2ncnn2cc1Nc1ncc2c(n1)n(C1CCOCC1)c(=O)n2C [AZD7648] (first compound max 1 µM, 7x7, partner max 10 µM) fall at or above the 0.5 mark?
Output line: label 0

Input line: Does the reported combination Emax for COc1nnc2ccc(N3CCC(c4ccc(OCCN5CCN(C)C(=O)[C@H]5C)cc4)CC3)nn12 [AZD5153] + Cn1cnc2c(F)c(Nc3ccc(Br)cc3Cl)c(C(=O)NOCCO)cc21 [Selumetinib] (first compound max 1 µM, 7x7, partner max 10 µM) fall at or above the 0.5 mark?
Output line: label 1

Input line: Does the reported combination Emax for COc1cccc(OCCCN)c1-c1cc(Nc2cnc(C#N)cn2)n[nH]1 [Prexasertib] + C=CCn1c(=O)c2cnc(Nc3ccc(N4CCN(C)CC4)cc3)nc2n1-c1cccc(C(C)(C)O)n1 [AZD1775] (first compound max 1 µM, partner max 1 µM) fall at or above the 0.5 mark?
Output line: label 1

Input line: Does the reported combination Emax for CN(CCO)CC[C@H](CSc1ccccc1)Nc1ccc(S(=O)(=O)NC(=O)c2ccc(N3CCC([C@@H](O)c4ccccc4-c4ccc(Cl)cc4)CC3)cc2)cc1S(=O)(=O)C(F)(F)F [AZD4320] + Cc1cc2ncnn2cc1Nc1ncc2c(n1)n(C1CCOCC1)c(=O)n2C [AZD7648] (first compound max 1 µM, 7x7, partner max 10 µM) fall at or above the 0.5 mark?
Output line: label 0

Input line: Does the reported combination Emax for COc1cccc(OCCCN)c1-c1cc(Nc2cnc(C#N)cn2)n[nH]1 [Prexasertib] + O=C(c1cc(Cc2n[nH]c(=O)c3ccccc23)ccc1F)N1CCN(C(=O)C2CC2)CC1 [Olaparib] (first compound max 1 µM, 7x7, partner max 10 µM) fall at or above the 0.5 mark?
Output line: label 1

Input line: Does the reported combination Emax for Cc1cc2ncnn2cc1Nc1ncc2c(n1)n(C1CCOCC1)c(=O)n2C [AZD7648] + O=C(c1cc(Cc2n[nH]c(=O)c3ccccc23)ccc1F)N1CCN(C(=O)C2CC2)CC1 [Olaparib] (first compound max 10 µM, 7x7, partner max 10 µM) fall at or above the 0.5 mark?
Output line: label 0

Input line: Does the reported combination Emax for CN(CCO)CC[C@H](CSc1ccccc1)Nc1ccc(S(=O)(=O)NC(=O)c2ccc(N3CCC([C@@H](O)c4ccccc4-c4ccc(Cl)cc4)CC3)cc2)cc1S(=O)(=O)C(F)(F)F [AZD4320] + C1CN(CCC1(C(=O)N[C@@H](CCO)C2=CC=C(C=C2)Cl)N)C3=NC=NC4=C3C=CN4 [Capivasertib] (first compound max 1 µM, 7x7, partner max 3 µM) fall at or above the 0.5 mark?
Output line: label 0

Input line: Does the reported combination Emax for CN(CCO)CC[C@H](CSc1ccccc1)Nc1ccc(S(=O)(=O)NC(=O)c2ccc(N3CCC([C@@H](O)c4ccccc4-c4ccc(Cl)cc4)CC3)cc2)cc1S(=O)(=O)C(F)(F)F [AZD4320] + Nc1ccn([C@@H]2O[C@H](CO)[C@@H](O)C2(F)F)c(=O)n1 [Gemcitabine] (first compound max 1 µM, 7x7, partner max 0.3 µM) fall at or above the 0.5 mark?
Output line: label 0

Input line: Does the reported combination Emax for CN(CCO)CC[C@H](CSc1ccccc1)Nc1ccc(S(=O)(=O)NC(=O)c2ccc(N3CCC([C@@H](O)c4ccccc4-c4ccc(Cl)cc4)CC3)cc2)cc1S(=O)(=O)C(F)(F)F [AZD4320] + C=CCn1c(=O)c2cnc(Nc3ccc(N4CCN(C)CC4)cc3)nc2n1-c1cccc(C(C)(C)O)n1 [AZD1775] (first compound max 1 µM, partner max 1 µM) fall at or above the 0.5 mark?
Output line: label 0

---

Please provide measured Bliss excess for the entries that follow.
system: C32 (Melanoma); assay: Bliss excess, mean over the matrix (fraction); higher = more synergy
Give your answer as a number; write no unit.

Input line: Retrieve Bliss excess on C32 (Melanoma); query COc1nnc2ccc(N3CCC(c4ccc(OCCN5CCN(C)C(=O)[C@H]5C)cc4)CC3)nn12 [AZD5153] + Cn1cnc2c(F)c(Nc3ccc(Br)cc3Cl)c(C(=O)NOCCO)cc21 [Selumetinib] (first compound max 1 µM, 7x7, partner max 10 µM)
Output line: 0.0709

Input line: Retrieve Bliss excess on C32 (Melanoma); query Cc1nc(-c2cn3c(n2)-c2ccc(-c4cnn(C(C)(C)C(N)=O)c4)cc2OCC3)n(C(C)C)n1 [Taselisib] + O=C(Nc1ccc2[nH]nc(-c3ccncc3)c2c1)[C@@H]1CCN(CC(=O)N2CCN(c3ccc(-c4ncccn4)cc3)CC2)C1 [SCH772984] (first compound max 10 µM, 7x7, partner max 5 µM)
Output line: 0.0706

Input line: Retrieve Bliss excess on C32 (Melanoma); query CN(CCO)CC[C@H](CSc1ccccc1)Nc1ccc(S(=O)(=O)NC(=O)c2ccc(N3CCC([C@@H](O)c4ccccc4-c4ccc(Cl)cc4)CC3)cc2)cc1S(=O)(=O)C(F)(F)F [AZD4320] + C[C@@H](Nc1cc(F)cc(F)c1)c1cc(C(=O)N(C)C)cc2c(=O)cc(N3CCOCC3)oc12 [AZD8186] (first compound max 1 µM, 7x7, partner max 3 µM)
Output line: -0.0046

---

tested on: KNS-62 (Squamous Cell Lung Carcinoma); assay: Bliss excess, mean over the matrix (fraction); higher = more synergy
Please provide measured Bliss excess for the entries that follow.
Give your answer as a number; write no unit.

Input line: Retrieve Bliss excess on KNS-62 (Squamous Cell Lung Carcinoma); query C[C@@H](Nc1cc(F)cc(F)c1)c1cc(C(=O)N(C)C)cc2c(=O)cc(N3CCOCC3)oc12 [AZD8186] + CC(=O)c1c(C)c2cnc(Nc3ccc(N4CCNCC4)cn3)nc2n(C2CCCC2)c1=O [Palbociclib] (first compound max 10 µM, 7x7, partner max 10 µM)
Output line: -0.0035

Input line: Retrieve Bliss excess on KNS-62 (Squamous Cell Lung Carcinoma); query CN(C)CCCOc1ccc(-c2ccc3ncc4c(c3c2)n(C2CCOCC2)c(=O)n4C)cn1 [AZD0156] + C[C@@H]1COCCN1C2=NC(=NC(=C2)C3(CC3)[S@](=N)(=O)C)C4=C5C=CNC5=NC=C4 [AZD6738] (first compound max 1 µM, 7x7, partner max 10 µM)
Output line: -0.0343

Input line: Retrieve Bliss excess on KNS-62 (Squamous Cell Lung Carcinoma); query CC(=O)c1c(C)c2cnc(Nc3ccc(N4CCNCC4)cn3)nc2n(C2CCCC2)c1=O [Palbociclib] + Cc1c2c(nn1C)CSCc1cc(n(C)n1)CSc1cc(c3ccccc3c1)OCCCc1c(C(=O)O)n(C)c3c-2c(Cl)ccc13 [AZD5991] (first compound max 10 µM, 7x7, partner max 1 µM)
Output line: -0.0142

Input line: Retrieve Bliss excess on KNS-62 (Squamous Cell Lung Carcinoma); query CN(CCO)CC[C@H](CSc1ccccc1)Nc1ccc(S(=O)(=O)NC(=O)c2ccc(N3CCC([C@@H](O)c4ccccc4-c4ccc(Cl)cc4)CC3)cc2)cc1S(=O)(=O)C(F)(F)F [AZD4320] + C1CN(CCC1(C(=O)N[C@@H](CCO)C2=CC=C(C=C2)Cl)N)C3=NC=NC4=C3C=CN4 [Capivasertib] (first compound max 1 µM, 7x7, partner max 3 µM)
Output line: -0.0637
